Ref: ChEMBL document CHEMBL4049430

- TEST DESCRIPTION: Cmax in mouse blood at 50 mg/kg, po
- Assay type: ADME, organism-based
- Set-up: dose 50 mg/kg, route oral
ENDPOINT NAME: Cmax (µM)

In [3]: df
Out[3]:
                                smiles_data  endpoint_name  value_units  reported_result
0  COc1nn(-c2ccccn2)c2cc(-c3ccc([C@H]4C[C@@H]4C(=O)O)cc3)cc(F)c12           Cmax           µM               97

====

- TEST DESCRIPTION: Ratio of unbound drug level in mouse brain to blood at 5 mg/kg administered through oral gavage after 2 hrs
- MEASUREMENT PARAMETERS: brain
ENDPOINT NAME: Kp uu at 2 h

>>> df
                                smiles_data  endpoint_name  reported_result
0  Cc1ccc(-n2nc(C)c3ccc(-c4ccc([C@H]5C[C@@H]5C(=O)O)cc4)cc32)cc1   Kp uu at 2 h             0.22

====

# clearance annotations
- TEST DESCRIPTION: Clearance in mouse at 2.5 mg/kg, iv after 24 hrs
- Format: ADME, organism-based
- MEASUREMENT PARAMETERS: in vivo
ENDPOINT NAME: clearance (mL/min/kg)

>>> print(df.to_string())
                                smiles_data  reported_result
0  COc1nn(-c2ccccn2)c2cc(-c3ccc([C@H]4C[C@@H]4C(=O)O)cc3)ccc12              9.3
1  Cc1ccc(-n2nc(C)c3ccc(-c4ccc([C@H]5C[C@@H]5C(=O)O)cc4)cc32)cc1              9.6
2  COc1nn(-c2ccccn2)c2cc(-c3ccc([C@H]4C[C@@H]4C(=O)O)cc3)cc(F)c12              5.2
3  COc1nn(-c2ccc(C)cc2)c2cc(-c3ccc([C@H]4C[C@@H]4C(=O)O)cc3)cc(F)c12              0.4

====

- TEST DESCRIPTION: Octanol-buffer partition coefficient, log D of the compound at pH 7.4 after 30 mins by LC-UV based shake-flask method
# logD at 0.5 h annotations
ENDPOINT NAME: logD at 0.5 h

>>> print(df.to_string())
                                 smiles_data  endpoint_name  reported_result
 0  O=C(O)CCc1ccc(-c2ccc3cnn(-c4ccccn4)c3c2)cc1  logD at 0.5 h              2.4
 1  N#Cc1cc(-c2ccc(CCC(=O)O)cc2)cc2c1cnn2-c1ccccn1  logD at 0.5 h              2.2
 2  CCc1nn(-c2ccccn2)c2cc(-c3ccc(CCC(=O)O)cc3)ccc12  logD at 0.5 h              3.3
 3  Cc1ccc(-n2nc(C)c3c(F)cc(-c4ccc([C@H]5C[C@@H]5C(=O)O)cc4)cc32)cc1  logD at 0.5 h              4.2
 4  Cc1nn(-c2ccccn2)c2cc(-c3ccc(CCC(=O)O)cc3Cl)ccc12  logD at 0.5 h              3.3
 5  COc1nn(-c2ccccn2)c2cc(-c3ccc([C@H]4C[C@@H]4C(=O)O)cc3)cc(F)c12  logD at 0.5 h              3.8
 6  COc1cc(CCC(=O)O)ccc1-c1ccc2c(C)nn(-c3ccccn3)c2c1  logD at 0.5 h              2.4
 7  Cc1ccc(-n2nc(C)c3cnc(-c4ccc([C@H]5C[C@@H]5C(=O)O)cc4F)cc32)nc1  logD at 0.5 h              2.6
 8  COc1nn(-c2ccc(C)cc2)c2cc(-c3ccc([C@H]4C[C@@H]4C(=O)O)cc3)cc(F)c12  logD at 0.5 h            > 4.2
 9  COc1nn(-c2ccccn2)c2cc(-c3ccc(CCC(=O)O)cc3)ccc12  logD at 0.5 h              3.3
10  Cc1nn(-c2ccccn2)c2cc(-c3ccc(CCC(=O)O)cc3F)ccc12  logD at 0.5 h              2.9
11  COc1nn(-c2ccccn2)c2cc(-c3ccc([C@H]4C[C@@H]4C(=O)O)cc3)ccc12  logD at 0.5 h              3.8
12  N#Cc1nn(-c2ccccn2)c2cc(-c3ccc(CCC(=O)O)cc3)ccc12  logD at 0.5 h                3
13  Cc1nn(-c2ccccn2)c2cc(-c3ccc(CCC(=O)O)cc3C#N)ccc12  logD at 0.5 h              2.2
14  Cc1nn(-c2ccccn2)c2cc(-c3ccc(CCC(=O)O)cc3)ncc12  logD at 0.5 h              1.6
15  Cc1ccc(-n2nc(C)c3cnc(-c4ccc([C@H]5C[C@@H]5C(=O)O)cc4)cc32)cc1  logD at 0.5 h              2.6
16  O=C(O)CCc1ccc(-c2cc(F)c3cnn(-c4ccccn4)c3c2)cc1  logD at 0.5 h              2.8
17  Cc1cc(-c2ccc(CCC(=O)O)cc2)cc2c1cnn2-c1ccccn1  logD at 0.5 h              2.6

====

- TESTED ON: Free fatty acid receptor 4 (Homo sapiens) (UniProt Q5NUL3)
- Sequence (Q5NUL3 whole entry): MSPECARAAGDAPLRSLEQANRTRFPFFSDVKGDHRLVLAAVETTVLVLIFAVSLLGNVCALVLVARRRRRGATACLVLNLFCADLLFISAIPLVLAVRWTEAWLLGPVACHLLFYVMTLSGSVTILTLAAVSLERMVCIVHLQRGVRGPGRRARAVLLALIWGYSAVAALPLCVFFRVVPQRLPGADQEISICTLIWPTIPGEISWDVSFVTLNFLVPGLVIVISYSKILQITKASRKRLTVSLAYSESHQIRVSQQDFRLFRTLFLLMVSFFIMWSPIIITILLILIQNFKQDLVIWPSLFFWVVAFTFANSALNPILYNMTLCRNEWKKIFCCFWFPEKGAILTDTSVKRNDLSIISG
- TEST DESCRIPTION: Agonist activity at human GPR120 expressed in CHO-FlpIn cells after 15 mins by DMR assay relative to control
- Type: cell-based
ENDPOINT NAME: Efficacy (%)

>>> df
                                smiles_data  reported_result
0  Cc1ccc(-n2nc(C)c3ccc(-c4ccc([C@H]5C[C@@H]5C(=O)O)cc4)cc32)cc1              100
1  Cc1nn(-c2ccccn2)c2cc(-c3cccc(CC(=O)O)c3)ccc12                3
2  Cc1nn(-c2ccccn2)c2cc(-c3ccc(CCC(=O)O)cc3Cl)ccc12              113
3  Cc1cc(-c2ccc(CCC(=O)O)cc2)cc2c1cnn2-c1ccccn1               70

====

- TESTED ON: Free fatty acid receptor 4 (Homo sapiens)
- Sequence (Q5NUL3 whole entry): as above
- TEST DESCRIPTION: Agonist activity at human GPR120 expressed in CHO-FlpIn cells after 15 mins by DMR assay
The label is yes (1) for EC50 below 800 nM and no (0) for EC50 equal to or exceeding 800 nM.

>>> df
                                    compound  assigned_category
 0  Cc1nn(-c2ccccn2)c2cc(-c3cccc(CCC(=O)O)c3)ccc12             no (0)
 1  Cc1cc(-c2ccc(CCC(=O)O)cc2)cc2c1cnn2-c1ccccn1             no (0)
 2  C[C@H](Cc1ccc(-c2ccc3cnn(-c4ccccn4)c3c2)cc1)C(=O)O             no (0)
 3  Cc1nn(-c2ccccn2)c2cc(-c3ccc(CCCC(=O)O)cc3)ccc12            yes (1)
 4  O=C(O)CCc1ccc(-c2cc(F)c3cnn(-c4ccccn4)c3c2)cc1            yes (1)
 5  Cc1nn(-c2ccccn2)c2cc(-c3ccc(CCC(=O)O)cc3)ccc12            yes (1)
 6  N#Cc1nn(-c2ccccn2)c2cc(-c3ccc(CCC(=O)O)cc3)ccc12             no (0)
 7  Cc1nn(-c2ccccn2)c2cc(-c3ccc(CCC(=O)O)cc3Cl)ccc12            yes (1)
 8  Cc1ccc(-n2nc(C)c3c(F)cc(-c4ccc([C@H]5C[C@@H]5C(=O)O)cc4)cc32)cc1            yes (1)
 9  O=C(O)CCc1ccc(-c2ccc3c(OCc4ccccc4)nn(-c4ccccn4)c3c2)cc1             no (0)
10  CCc1nn(-c2ccccn2)c2cc(-c3ccc(CCC(=O)O)cc3)ccc12            yes (1)
11  Cc1nn(-c2ccccn2)c2cc(-c3ccc([C@H]4C[C@@H]4C(=O)O)cc3)ccc12 (racemic)             no (0)
12  Cc1nn(-c2ccccn2)c2cc(-c3ccc(CCC(=O)O)cc3C#N)ccc12             no (0)
13  Cc1nn(-c2ccccn2)c2cc(-c3ccc(C(C)CC(=O)O)cc3)ncc12 (stereo not given)             no (0)
14  Cc1nn(-c2ccccn2)c2cc(-c3ccc(CCC(=O)O)cc3)ncc12             no (0)
15  Cc1ccc(-n2nc(C)c3cnc(-c4ccc([C@H]5C[C@@H]5C(=O)O)cc4)cc32)cc1             no (0)
16  Cc1nn(-c2ccccn2)c2cc(-c3ccc([C@@H]4C[C@H]4C(=O)O)cc3)ccc12             no (0)
17  Cc1nn(-c2ccccn2)c2cc(-c3ccc(CC(=O)O)cc3)ccc12             no (0)
18  Cc1nn(-c2ccccn2)c2cc(-c3ccc(CCC(=O)O)cc3F)ccc12            yes (1)
19  COc1nn(-c2ccccn2)c2cc(-c3ccc(CCC(=O)O)cc3)ccc12            yes (1)
